method: Therapeutic index, ratio of TC50 human HeLa cells expressing CD4-LTR to EC50 for HIV1 entry inhibition in human HeLa cells expressing CD4-LTR
Format: cell-based
condition_details: read-out: TI
This section presents molecules with their documented selectivity ratio values.

# molecule, selectivity ratio
data = [
    ("CCc1c(Oc2cc(C)cc(C)c2)n(CCC2CCCC2)c(=O)[nH]c1=O", 24),
    ("Cc1cc(C)cc(C(=O)c2cc(=O)[nH]c(=O)n2CC2CC=CC2)c1", 124),
    ("Cc1cc(C)cc(Oc2c(C(C)C)c(=O)[nH]c(=O)n2CC2CC=CC2)c1", 2340),
    ("Cc1cc(C)cc(C(=O)c2c(C(C)C)c(=O)[nH]c(=O)n2Cc2ccccc2)c1", 726),
    ("CCc1c(C(=O)c2cc(C)cc(C)c2)n(CC2CC2)c(=O)[nH]c1=O", 197000),
    ("Cc1cc(C)cc(Sc2c(C(C)C)c(=O)[nH]c(=O)n2CC2CC2)c1", 1180),
    ("Cc1cc(C)cc(C(=O)c2c(C(C)C)c(=O)[nH]c(=O)n2CC2CC=CC2)c1", 2690),
    ("CCc1c(Oc2cc(C)cc(C)c2)n(CC2CC2)c(=O)[nH]c1=O", 202000),
    ("Cc1cc(C)cc(Oc2c(C(C)C)c(=O)[nH]c(=O)n2CCC2CC=CC2)c1", 6),
    ("Cc1cc(C)cc(C(=O)c2c(C(C)C)c(=O)[nH]c(=O)n2CCC2CC=CC2)c1", 30),
    ("CCc1c(Oc2cc(C)cc(C)c2)n(CCC2=CCCC2)c(=O)[nH]c1=O", 424),
    ("CCc1c(Sc2cc(C)cc(C)c2)n(CCC2C=CCC2)c(=O)[nH]c1=O (configuration not stated)", 192),
    ("CCc1c(Oc2ccccc2)n(CC2CC=CC2)c(=O)[nH]c1=O", 527),
    ("CCc1c(Oc2cc(C)cc(C)c2)n(CC2CCCCC2)c(=O)[nH]c1=O", 555),
    ("Cc1cc(C)cc(Sc2c(C(C)C)c(=O)[nH]c(=O)n2CCC2=CCCC2)c1", 1990),
    ("Cc1cc(C)cc(Oc2c(C(C)C)c(=O)[nH]c(=O)n2CC2CC2)c1", 86),
    ("Cc1cc(C)cc(C(=O)c2c(C(C)C)c(=O)[nH]c(=O)n2CC2CCC2)c1", 606),
    ("Cc1cc(C)cc(C(=O)c2c(C(C)C)c(=O)[nH]c(=O)n2CC2CC2)c1", 101000),
    ("Cc1cc(C)cc(Oc2c(C(C)C)c(=O)[nH]c(=O)n2CC2CCCC2)c1", 18),
    ("CCc1c(Sc2cc(C)cc(C)c2)n(CC2=CCCC2)c(=O)[nH]c1=O", 104000),
    ("CC(C)c1c(C(=O)c2ccccc2)n(CC2CC=CC2)c(=O)[nH]c1=O", 1480),
    ("CCc1c(Sc2cc(C)cc(C)c2)n(CC2CCCC2)c(=O)[nH]c1=O", 1590),
    ("Cc1cc(C)cc(Sc2c(C(C)C)c(=O)[nH]c(=O)n2Cc2ccccc2)c1", 2340),
    ("Cc1cc(C)cc(Sc2c(C(C)C)c(=O)[nH]c(=O)n2CCC2CCCC2)c1", 12),
    ("CCc1c(C(=O)c2cc(C)cc(C)c2)n(CC2=CCCC2)c(=O)[nH]c1=O", 536),
    ("CCc1c(Oc2cc(C)cc(C)c2)n(CC2CC=CC2)c(=O)[nH]c1=O", 6850),
    ("CCc1c(Oc2cc(C)cc(C)c2)n(CC2=CCCC2)c(=O)[nH]c1=O", 7280),
    ("CCc1c(C(=O)c2ccccc2)n(CC2CC=CC2)c(=O)[nH]c1=O", 30),
    ("CC(C)c1c(Oc2ccccc2)n(CC2CC=CC2)c(=O)[nH]c1=O", 4370),
    ("Cc1cc(C)cc(Sc2c(C(C)C)c(=O)[nH]c(=O)n2CC2CC=CC2)c1", 307),
    ("Cc1cc(C)cc(C(=O)c2c(C(C)C)c(=O)[nH]c(=O)n2CC2CCCC2)c1", 203),
    ("Cc1cc(C)cc(Oc2c(C(C)C)c(=O)[nH]c(=O)n2CC2CCCCC2)c1", 41),
    ("CCc1c(Sc2cc(C)cc(C)c2)n(CCC2=CCCC2)c(=O)[nH]c1=O", 4400),
    ("CCc1c(C(=O)c2cc(C)cc(C)c2)n(CC2CCC2)c(=O)[nH]c1=O", 14500),
    ("Cc1cc(C)cc(Oc2c(C(C)C)c(=O)[nH]c(=O)n2Cc2ccccc2)c1", 4180),
    ("CCc1c(Sc2ccccc2)n(CC2CC=CC2)c(=O)[nH]c1=O", 1250),
    ("CC(C)c1c(Sc2ccccc2)n(CC2CC=CC2)c(=O)[nH]c1=O", 22),
]

----------
IC50 reference
measurement_target: Human immunodeficiency virus type 1 reverse transcriptase (Human immunodeficiency virus 1, UniProt Q72547)

# molecule, IC50 [nM]
rows = [
    ("CC(C)c1c(Oc2ccccc2)n(CC2CC=CC2)c(=O)[nH]c1=O", 4910),
    ("CC(C)c1c(C(=O)c2ccccc2)n(CC2CC=CC2)c(=O)[nH]c1=O", 180),
    ("CCc1c(Sc2cc(C)cc(C)c2)n(CCC2CC=CC2)c(=O)[nH]c1=O", 179),
    ("CCc1c(C(=O)c2cc(C)cc(C)c2)n(CC2CCCCC2)c(=O)[nH]c1=O", 173),
    ("Cc1cc(C)cc(Oc2c(C(C)C)c(=O)[nH]c(=O)n2CC2CC2)c1", 12),
    ("Cc1cc(C)cc(C(=O)c2c(C(C)C)c(=O)[nH]c(=O)n2CC2CC2)c1", 1970),
    ("Cc1cc(C)cc(Oc2c(C(C)C)c(=O)[nH]c(=O)n2CC2CC=CC2)c1", 256),
    ("CCc1c(Sc2cc(C)cc(C)c2)n(Cc2ccccc2)c(=O)[nH]c1=O", 15600),
    ("Cc1cc(C)cc(C(=O)c2c(C(C)C)c(=O)[nH]c(=O)n2CCC2C=CCC2)c1 (stereo not given)", 23),
    ("Cc1cc(C)cc(C(=O)c2c(C(C)C)c(=O)[nH]c(=O)n2Cc2ccccc2)c1", 11),
]

----------
Overview of reported CC50 across a group of molecules:
method: Cytotoxicity against human CEM-SS cells by XTT assay
Type: cell-based
condition_details: read-out: TC50 (the source's name)
result_type: CC50 (µM)

# molecule, recorded_result
records = [
    ("Cc1cc(C)cc(Sc2c(C(C)C)c(=O)[nH]c(=O)n2CCC2C=CCC2)c1 (stereo unspecified)", 25.8),
    ("Cc1cc(C)cc(C(=O)c2cc(=O)[nH]c(=O)n2CC2CC=CC2)c1", 87.3),
    ("CCc1c(Oc2cc(C)cc(C)c2)n(CCC2CCCC2)c(=O)[nH]c1=O", 27),
    ("CCc1c(Sc2cc(C)cc(C)c2)n(CCC2CCCC2)c(=O)[nH]c1=O", 29),
    ("Cc1cc(C)cc(Sc2c(C(C)C)c(=O)[nH]c(=O)n2CCC2CC=CC2)c1", 12.8),
    ("Cc1cc(C)cc(Sc2c(C(C)C)c(=O)[nH]c(=O)n2CC2CCCCC2)c1", 13.2),
    ("CCc1c(Sc2cc(C)cc(C)c2)n(CCC2C=CCC2)c(=O)[nH]c1=O (stereo unspecified)", 5.7),
    ("Cc1cc(C)cc(Sc2c(C(C)C)c(=O)[nH]c(=O)n2CC2CCC2)c1", 6.1),
    ("CCc1c(Sc2cc(C)cc(C)c2)n(CC2CCCC2)c(=O)[nH]c1=O", 222),
    ("Cc1cc(C)cc(Sc2c(C(C)C)c(=O)[nH]c(=O)n2CCC2=CCCC2)c1", 19.3),
    ("CCc1c(C(=O)c2cc(C)cc(C)c2)n(CC2CCCC2)c(=O)[nH]c1=O", 253),
    ("Cc1cc(C)cc(Sc2c(C(C)C)c(=O)[nH]c(=O)n2CC2=CCCC2)c1", 29.4),
    ("CC(C)c1c(C(=O)c2ccccc2)n(CC2CC=CC2)c(=O)[nH]c1=O", 1180),
    ("Cc1cc(C)cc(C(=O)c2c(C)c(=O)[nH]c(=O)n2CC2CC=CC2)c1", 81.9),
    ("CCc1c(Sc2cc(C)cc(C)c2)n(CC2CC2)c(=O)[nH]c1=O", 7.6),
    ("Cc1cc(C)cc(Oc2c(C(C)C)c(=O)[nH]c(=O)n2CC2=CCCC2)c1", 16.4),
    ("Cc1cc(C)cc(C(=O)c2c(C(C)C)c(=O)[nH]c(=O)n2CCC2CC=CC2)c1", 13.9),
    ("Cc1cc(C)cc(Oc2c(C(C)C)c(=O)[nH]c(=O)n2Cc2ccccc2)c1", 38.2),
    ("Cc1cc(C)cc(C(=O)c2c(C(C)C)c(=O)[nH]c(=O)n2CCC2=CCCC2)c1", 19.2),
    ("CCc1c(Oc2cc(C)cc(C)c2)n(Cc2ccccc2)c(=O)[nH]c1=O", 802),
    ("Cc1cc(C)cc(Oc2c(C(C)C)c(=O)[nH]c(=O)n2CC2CC2)c1", 19.5),
    ("CCc1c(C(=O)c2cc(C)cc(C)c2)n(CC2CCC2)c(=O)[nH]c1=O", 850),
    ("Cc1cc(C)cc(C(=O)c2c(C(C)C)c(=O)[nH]c(=O)n2CC2CC2)c1", 1200),
    ("CCc1c(Sc2cc(C)cc(C)c2)n(CCC2CC=CC2)c(=O)[nH]c1=O", 19.5),
    ("CCc1c(Sc2cc(C)cc(C)c2)n(CC2=CCCC2)c(=O)[nH]c1=O", 887),
    ("CCc1c(Oc2cc(C)cc(C)c2)n(CC2=CCCC2)c(=O)[nH]c1=O", 62.9),
    ("CCc1c(C(=O)c2cc(C)cc(C)c2)n(CCC2CCCC2)c(=O)[nH]c1=O", 25.8),
    ("CCc1c(Oc2cc(C)cc(C)c2)n(CC2CC=CC2)c(=O)[nH]c1=O", 1200),
    ("Cc1cc(C)cc(Oc2c(C(C)C)c(=O)[nH]c(=O)n2CCC2CCCC2)c1", 7.8),
    ("CCc1c(Oc2cc(C)cc(C)c2)n(CC2CC2)c(=O)[nH]c1=O", 1300),
    ("CC(C)c1c(Oc2ccccc2)n(CC2CC=CC2)c(=O)[nH]c1=O", 1100),
    ("CCc1c(Oc2cc(C)cc(C)c2)n(CC2CCCC2)c(=O)[nH]c1=O", 20.2),
    ("CCc1c(C(=O)c2ccccc2)n(CC2CC=CC2)c(=O)[nH]c1=O", 88.5),
    ("Cc1cc(C)cc(Sc2c(C(C)C)c(=O)[nH]c(=O)n2CCC2CCCC2)c1", 14.2),
    ("CCc1c(Sc2cc(C)cc(C)c2)n(CC2CCC2)c(=O)[nH]c1=O", 27),
    ("CCc1c(Oc2ccccc2)n(CC2CC=CC2)c(=O)[nH]c1=O", 76.2),
    ("Cc1cc(C)cc(Oc2c(C(C)C)c(=O)[nH]c(=O)n2CC2CC=CC2)c1", 200),
    ("Cc1cc(C)cc(C(=O)c2c(C(C)C)c(=O)[nH]c(=O)n2CC2CCCC2)c1", 15.2),
    ("CCc1c(Sc2cc(C)cc(C)c2)n(CC2CC=CC2)c(=O)[nH]c1=O", 18.3),
    ("CCc1c(C(=O)c2cc(C)cc(C)c2)n(CC2CC2)c(=O)[nH]c1=O", 1200),
    ("CCc1c(Oc2cc(C)cc(C)c2)n(CCC2=CCCC2)c(=O)[nH]c1=O", 1100),
]
